The reported numbers originate from PubChem BioAssay.

assay: E. coli growth modulation, two-sided OD650, primary screen, E. coli filamentation project, strain DRC41, 24 h (AID 1093); details: OD650, 24 h, higher = more signal, called active from +8 up or from −8 down;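 note: MC1000 strain lacking acrAB efflux and sulA so SOS filamentation is blocked; test concentration not given here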
Calls of active or inactive are those of the source.
// reported z-score for each item listed

Some solved entries appear below for comparison.
[
  {
    "molecule": "CO[C@@H]1[C@H](O)CO[C@H]1C=Cc1ccccc1",
    "z-score": "0.447 (inactive)"
  },
  {
    "molecule": "CO[C@H]1COC(=O)CC=C[C@H](C)[C@H](OC)COC(=O)[C@@H](C)NC(=O)CC=C[C@@H]1C",
    "z-score": "-0.159 (inactive)"
  },
  {
    "molecule": "COC(=O)CC=C[C@@H](C)[C@@H](C=NOC(C)CN1CCCc2nc(C)c(C)cc21)NS(=O)(=O)c1ccc(C)cc1 (stereo not given in full)",
    "z-score": "0.644 (inactive)"
  },
  {
    "molecule": "CC#CCOCCC=C1c2ccccc2[C@@H](OC)[C@@H]1C",
    "z-score": "0.596 (inactive)"
  }
]

Now consider the entry below.
Input line: Return reported z-score. Input molecule: CC(CCC(=O)OC[C@H]1O[C@H](C#Cc2ccccc2)C=C[C@@H]1Oc1ccc(C)cc1)=NOC[C@@H](C)[C@H](OCc1ccccc1)C(C)C
Output line: -0.346 (inactive)

###

test system: Neuregulin-1 EGF-like domain; assay: binders of neuregulin-1 EGF-like domain, primary screen, biochemical, small-molecule microarray, 635 nm fluorescence (AID 1081); conditions: small-molecule microarray binding, higher = more signal;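 note: binding of the protein to compounds printed on small-molecule microarray slides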
Classify as follows. Reported composite z-score greater than or equal to 0.6: criterion met. Reported composite z-score below: criterion not met.

Study these solved cases before continuing.
[
  {
    "compound": "CC(C)=CCCC(C)=CCON=C1C[C@@H](O)[C@@H](O)[C@@H]2[C@@H]3C(=O)N(C4CCCCC4)C(=O)[C@@H]3CC[C@H]12",
    "subject_of_test": "Neuregulin-1 EGF-like domain",
    "assigned_class": "criterion not met"
  },
  {
    "compound": "CC(CCN1CCCc2nc(C)c(C)cc21)=NO[C@H](C)c1cn([C@@H]2COC[C@H]2O)nn1",
    "subject_of_test": "Neuregulin-1 EGF-like domain",
    "assigned_class": "criterion met"
  },
  {
    "compound": "C=CC[C@@H]1C=C[C@H](ON=C(C)CCN2CCCCc3nc(C)c(C)cc32)[C@@H](CO)O1",
    "subject_of_test": "Neuregulin-1 EGF-like domain",
    "assigned_class": "criterion met"
  },
  {
    "compound": "CON=C1c2cc(OC)ccc2O[C@H](c2cccc(OC)c2)[C@H]1O",
    "subject_of_test": "Neuregulin-1 EGF-like domain",
    "assigned_class": "criterion met"
  },
  {
    "compound": "CC(=O)OC[C@H]1O[C@@H](ON=C(C)CCC(=O)OC[C@H]2O[C@H](C#Cc3ccccc3)C=C[C@@H]2Oc2ccc(C)cc2)[C@H](OC(C)=O)[C@@H](OC(C)=O)[C@@H]1OC(C)=O",
    "subject_of_test": "Neuregulin-1 EGF-like domain",
    "assigned_class": "criterion met"
  }
]

Input line: Please check the record CC1(C)O[C@H]2O[C@H]([C@H](O)CON=C3[C@H]4CCn5c(=O)n(-c6ccccc6)c(=O)n5[C@H]4[C@H](O)[C@@H]4O[C@H]34)[C@H](O)[C@H]2O1 and state if its composite z-score is at or above 0.6.
Output line: criterion not met

Input line: Please check the record C=CC[C@@H]1C=C[C@H](ON=C[C@@H](NS(=O)(=O)c2ccc(C)cc2)[C@H](C)C=CCC(=O)OC)[C@@H](CO)O1 and state if its composite z-score is at or above 0.6.
Output line: criterion not met

###

experiment: small-molecule microarray binders of probe aLefty2, primary screen, biochemical, biotinylated probe, 635/667 nm fluorescence (AID 1094); conditions: higher = more signal;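 note: score merges spot fluorescence near 667 nm with spot signal-to-noise ratio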
Classify as follows. Reported composite z-score greater than or equal to -0.04: Criterion met. Reported composite z-score below: Criterion not met.

[
  {
    "compound": "CO[C@@H]1[C@H](O)CO[C@H]1C=Cc1ccccc1",
    "assigned_class": "Criterion not met"
  },
  {
    "compound": "CCN1C(=O)[C@H]2[C@H]3[C@H](O)[C@H](O)CC(=NO[C@@H](C)c4cc(-c5c(C)cc(C)cc5C)no4)[C@@H]3CC[C@H]2C1=O",
    "assigned_class": "Criterion met"
  },
  {
    "compound": "CN1CCc2nc(-c3ccccc3)c(-c3ccccc3)cc2C1",
    "assigned_class": "Criterion met"
  }
]

Input line: Please check the record CCOC(=O)[C@H](CC(C)C)NC(=O)CCC1CC(OC(=O)NCCc2ccc(F)cc2)CC2(CCCC(COC(=O)NCc3cccc(C(F)(F)F)c3)O2)O1 (some centres not stated) and state if its composite z-score is at or above -0.04.
Output line: Criterion not met

Input line: Please check the record COC(=O)[C@H](C)NC(=O)CCC1CC(OC(=O)NCc2ccc3c(c2)OCO3)CC2(CCCC(COC(=O)NCCCN3CCCC3=O)O2)O1 (some centres not stated) and state if its composite z-score is at or above -0.04.
Output line: Criterion not met

Input line: Please check the record CC(C)=NOC[C@@H](O)[C@H]1O[C@@H]2OC(C)(C)O[C@@H]2[C@H]1O and state if its composite z-score is at or above -0.04.
Output line: Criterion met

Input line: Please check the record COc1ccc(O[C@H]2C=C[C@@H](c3ccccc3)O[C@@H]2COC(=O)NCc2cccc3ccccc23)cc1 and state if its composite z-score is at or above -0.04.
Output line: Criterion not met

Input line: Please check the record CCCNC(=O)OC[C@H]1O[C@H](CCON=C[C@@H](NS(=O)(=O)c2ccc(C)cc2)[C@H](C)C=CCC(=O)OC)C=C[C@@H]1Oc1ccc(OC)cc1 and state if its composite z-score is at or above -0.04.
Output line: Criterion not met

Input line: Please check the record COc1cccc([C@H]2Oc3ccc(OC)cc3C(=NOCC[C@@H]3C=C[C@H](OC(C)=O)[C@@H](COC(C)=O)O3)[C@@H]2O)c1 and state if its composite z-score is at or above -0.04.
Output line: Criterion not met

Input line: Please check the record COc1ccc(COC(=O)NN=C2C[C@@H](O)[C@@H](O)[C@@H]3[C@@H]4C(=O)N(C5CCCCC5)C(=O)[C@@H]4CC[C@@H]23)cc1 and state if its composite z-score is at or above -0.04.
Output line: Criterion met

Input line: Please check the record CO[C@H]1COC(=O)CC=C[C@H](C)[C@H](OC)COC(=O)[C@@H](C)NC(=O)CC=C[C@@H]1C and state if its composite z-score is at or above -0.04.
Output line: Criterion met

###

// reported composite z-score for each item listed
molecular target: Calmodulin-1 (Homo sapiens) (UniProt P0DP23); test: calcium-bound CALM1 binders on microarrays, profiling panel, artefact control for SMM control-protein annotation, biochemical, small-molecule microarray, Cy5-labelled CALM1, plus calcium (AID 1112); details: Cy5-CALM1 binding fluorescence, higher = more signal;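 note: score merges spot fluorescence with signal to noise from triplicate slides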
Give only the figure.

Input line: Return reported composite z-score. Input molecule: CCOC(=O)[C@H](Cc1ccccc1)NC(=O)CCC1CC(OC(=O)NCc2ccc3c(c2)OCO3)CC2(CCCC(COC(=O)NCCOc3ccccc3)O2)O1 (stereo not given in full)
Output line: -0.166

Input line: Return reported composite z-score. Input molecule: CO[C@@H]1COC(=O)[C@@H]2CCCN2C(=O)[C@@H](C)COC(=O)CCC[C@H]1C
Output line: -0.911

Input line: Return reported composite z-score. Input molecule: CC(C)CON=C1C[C@@H](O)[C@@H](O)[C@@H]2[C@@H]3C(=O)N(Cc4ccccc4)C(=O)[C@@H]3CC[C@H]12
Output line: -0.414

Input line: Return reported composite z-score. Input molecule: CCN1C(=O)[C@H]2[C@H]3[C@H](O)[C@H](O)CC(=NO[C@@H]4O[C@H](CO)[C@@H](O)[C@H](O)[C@H]4O)[C@H]3CC[C@H]2C1=O
Output line: -1.04

Input line: Return reported composite z-score. Input molecule: COc1ccc(COC(=O)NN=C2C[C@@H](O)[C@@H](O)[C@@H]3[C@@H]4C(=O)N(c5cccc(Oc6ccccc6)c5)C(=O)[C@@H]4CC[C@H]23)cc1
Output line: 0.176

###

assay: splicing luciferase reporter signal modulators, primary screen, spliceosome inhibition project, cell-based, HEK293, splice +/- reporter (AID 1101); settings: luminescence, 24 h, higher = more signal, called active from +8 up or from −8 down;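 note: HEK293 cells carrying a splicing-competent luciferase reporter gene; test concentration not given here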
Active and inactive are the calls of the source.
// reported z-score for each item listed

Some solved entries appear below for comparison.
[
  {
    "molecule": "C[C@H]1CC[C@H]2C(=O)O[C@H](CO)CN2[C@@H]1c1ccc(Br)cc1",
    "test_value": "-0.202 (inactive)"
  },
  {
    "molecule": "CC(=O)OC[C@H]1O[C@H](CCON=C(C)CCN2CCCc3nc(C)c(C)cc32)C=C[C@@H]1OC(C)=O",
    "test_value": "1.06 (inactive)"
  },
  {
    "molecule": "CC(C)=NO[C@@H](C)c1cn([C@H](CO)Cc2ccccc2)nn1",
    "test_value": "-0.937 (inactive)"
  }
]

Now consider the entry below.
Input line: Return reported z-score. Input molecule: CCOC(=O)[C@H](Cc1ccccc1)NC(=O)CCC1CC(OC(=O)NCc2ccc3c(c2)OCO3)CC2(CCCC(COC(=O)NCCCN3CCCC3=O)O2)O1 (some centres undefined)
Output line: -0.199 (inactive)
